# assay target: recombinant human Meningioma Expressed Antigen 5 (MGEA5), also referred to as O-GlcNAcase (OGA) (Homo sapiens)
# Construct: Full length OGA enzyme was purchased at OriGene (cat #TP322411); purchased OriGene TP322411
# experiment summary: OGA biochemical assay (inhibition of FM-GlcNAc hydrolysis, fluorescence)
# condition label: read-out: Enzymatic hOGA, pIC50 (converted)
measurement label: IC50 (nM)

Cc1cnc(OC2CCN(C(C)c3nc4c(cc3F)OCCO4)CC2)c(C)n1 (centres unmarked); 15.8
CC(C)c1ncc(OC2CCN(C(C)c3ccc4c(n3)OCCO4)CC2)cn1 (centres unmarked); 63.1
Cc1cc(OC2CCN(C(C)c3cnc4c(c3)OCCN4)CC2)cc(C)n1 (centres unmarked); 158
CCOc1cc(OC2CCN(C(C)c3ccc4c(n3)OCCO4)CC2)cc(C)n1.Cl (centres unmarked); 25.1
Cc1cc(OC2CCN(C(C)c3nc4c(cc3F)CCO4)CC2)c(Cl)c(C)n1 (centres unmarked); 7.94

a: CCc1cc(OC2CCN(C(C)c3ccc4c(n3)OCCO4)CC2)cc(C)n1 (centres unmarked)
b: Cc1cc(OC2CCN(C(C)c3ccc4c(n3)OCCO4)CC2)cc(OC(C)C)n1 (centres unmarked)
c: Cc1nc(OC2CCN(C(C)c3nc4c(cc3F)OCCO4)CC2)ccc1C#N (centres unmarked)
I would appreciate it if you could sort these 3 compounds by IC50, starting from the smallest number. Record the ranking as a list of labels in the requested order.
c, b, a

* * *

# assay target: OGA (Homo sapiens, UniProt O60502)
# Construct: HEK293 cells inducible for P301L mutant human Tau (isoform 2N4R) were established at Janssen; endogenous in cells; host or cells: HEK293 cells inducible for P301L mutant human Tau (2N4R)
# Sequence (O60502 1-916): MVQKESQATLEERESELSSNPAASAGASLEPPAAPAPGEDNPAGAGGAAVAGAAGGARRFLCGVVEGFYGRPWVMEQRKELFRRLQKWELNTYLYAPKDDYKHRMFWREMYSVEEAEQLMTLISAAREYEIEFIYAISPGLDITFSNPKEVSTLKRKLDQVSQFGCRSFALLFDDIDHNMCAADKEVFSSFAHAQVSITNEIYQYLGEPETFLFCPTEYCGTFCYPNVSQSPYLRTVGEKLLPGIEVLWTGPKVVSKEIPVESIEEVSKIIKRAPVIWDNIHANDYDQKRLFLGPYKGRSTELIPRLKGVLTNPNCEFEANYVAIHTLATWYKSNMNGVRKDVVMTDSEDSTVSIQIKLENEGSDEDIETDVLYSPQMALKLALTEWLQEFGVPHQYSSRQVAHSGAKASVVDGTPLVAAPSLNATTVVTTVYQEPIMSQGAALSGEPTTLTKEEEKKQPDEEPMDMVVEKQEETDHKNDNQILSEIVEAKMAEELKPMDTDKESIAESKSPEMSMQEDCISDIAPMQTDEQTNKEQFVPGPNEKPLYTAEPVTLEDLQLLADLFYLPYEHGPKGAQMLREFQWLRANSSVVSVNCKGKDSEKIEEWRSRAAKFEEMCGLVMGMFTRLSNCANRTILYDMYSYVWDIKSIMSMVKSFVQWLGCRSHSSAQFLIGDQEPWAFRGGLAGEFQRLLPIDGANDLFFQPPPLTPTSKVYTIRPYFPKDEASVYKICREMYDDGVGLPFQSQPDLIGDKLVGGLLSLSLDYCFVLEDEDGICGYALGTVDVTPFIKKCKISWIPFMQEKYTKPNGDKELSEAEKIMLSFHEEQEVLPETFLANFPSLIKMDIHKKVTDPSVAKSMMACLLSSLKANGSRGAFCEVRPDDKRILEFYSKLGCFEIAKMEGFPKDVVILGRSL
# experiment summary: OGA cellular assay (ICC detection of O-GlcNAcylated proteins in HEK293 cells inducible for P301L mutant human Tau)
# Assay type: cell-based
# condition label: HEK293, HEK293 cells inducible for P301L mutant human Tau, 6 hours incubation; maximum = Thiamet G 200 uM
measurement label: Emax (%)

P: CC(c1ccc2c(n1)OCCO2)N1CCC(Oc2ccc(C#N)nc2)CC1 (centres unmarked)
Q: Cc1ncc(OC2CCN(C(C)c3nc4c(cc3F)CCO4)CC2)cn1 (centres unmarked)
R: Cc1cc(CC2(F)CCN(C(C)c3ccc4c(n3)OCCO4)CC2)cc(C)n1 (centres unmarked)
Sort ascending by Emax. Please express your ranking as an ordered list of the labels.
R, P, Q

a: Cc1cc(OC2CCN(C(C)c3ccc4c(n3)OCCO4)CC2)cc(C(C)C)n1 (centres unmarked)
b: Cc1ncc(OC2CCN(C(C)c3nc4c(cc3F)OCCO4)CC2)cn1.Cl (centres unmarked)
c: Cc1cc(OC2CCN([C@H](C)c3nc4c(cc3F)OCCO4)CC2)nc(C)n1 (single isomer, unassigned)
Could you please order the items by Emax, going from the lowest number to the highest? Thanks in advance for listing the labels in the requested order.
c, a, b

P: CC(c1ccc2c(n1)OCCO2)N1CCC(Oc2ccnc(C#N)c2)CC1 (centres unmarked)
Q: COc1cc(OC2CCN([C@@H](C)c3nc4nc(C)sc4cc3F)CC2)cc(C)n1 (single isomer, unassigned)
Could you tell me which of these two has the smaller Emax figure? First: P Second: Q Select an item and report its label.
P
(P: 60%, Q: 87%)

a: CNC(=O)c1ccc(OC2CCN(C(C)c3ccc4c(n3)OCCO4)CC2)cn1 (centres unmarked)
b: Cc1cc(OC2CCN(C(C)c3ccc4c(n3)OCCO4)CC2)c(Cl)c(C)n1 (centres unmarked)
Hi there, can you help? I need to know whether a or b has lower measured Emax. Write the label of whichever entry you select.
a
(a: 48%, b: 73%)

From: patent US20210122763A1
